- Test system: Hepatitis C virus
- Test Name: Inhibition of hepatitis C virus in a cell based HCV replicon assay.
- Format: functional, organism-based, Hepacivirus hominis
pEC50: −log10 of the molar value.
Mark rule not met for pEC50 values under 8, and rule met for everything at or above.

# Chemical Smiles, Label Value
data = [
    ("COc1ccc2c(O[C@@H]3C[C@H]4C(=O)N[C@]5(C(=O)O)C[C@H]5/C=C\\CCCCC[C@H](NC(=O)OC(C)(C)C)C(=O)N4C3)cc(-n3ccc(C)n3)nc2c1", "rule met"),
    ("COc1ccc2c(O[C@@H]3C[C@H]4C(=O)N[C@]5(C(=O)O)C[C@H]5/C=C\\CCCCC[C@H](NC(=O)OC(C)(C)C)C(=O)N4C3)cc(-n3cc(C)cn3)nc2c1", "rule not met"),
    ("COc1ccc2c(O[C@@H]3C[C@H]4C(=O)N[C@]5(C(=O)O)C[C@H]5/C=C\\CCCCC[C@H](NC(=O)OC(C)(C)C)C(=O)N4C3)cc(-c3ccccc3)nc2c1", "rule not met"),
    ("CNc1nc(-c2cc(O[C@@H]3C[C@H]4C(=O)N[C@]5(C(=O)O)C[C@H]5/C=C\\CCCCC[C@H](NC(=O)OC5CCCC5)C(=O)N4C3)c3ccc(OC)cc3n2)cs1", "rule met"),
    ("COc1ccc2c(O[C@@H]3C[C@H]4C(=O)N[C@]5(C(=O)O)C[C@H]5/C=C\\CCCCC[C@H](NC(=O)OC5CCC5)C(=O)N4C3)cc(-c3csc(NC(C)=O)n3)nc2c1", "rule met"),
    ("COc1ccc2c(O[C@@H]3C[C@H]4C(=O)N[C@]5(C(=O)O)C[C@H]5/C=C\\CCCCC[C@H](NC(=O)OC5CCCC5)C(=O)N4C3)cc(-c3csc(N)n3)nc2c1", "rule met"),
    ("COc1ccc2c(O[C@@H]3C[C@H]4C(=O)N[C@]5(C(=O)O)C[C@H]5/C=C\\CCCCC[C@H](NC(=O)N[C@H](C)C(C)(C)C)C(=O)N4C3)cc(-c3csc(NC(C)=O)n3)nc2c1", "rule not met"),
    ("COc1ccc2c(O[C@@H]3C[C@H]4C(=O)N[C@]5(C(=O)O)C[C@H]5/C=C\\CCCCC[C@H](NC(=O)OC5CCCC5)C(=O)N4C3)cc(-n3cccn3)nc2c1", "rule met"),
    ("COc1ccc2c(O[C@@H]3C[C@H]4C(=O)N[C@]5(C(=O)O)C[C@H]5/C=C\\CCCCC[C@H](NC(=O)OC5CCCC5)C(=O)N4C3)cc(-n3cccc3)nc2c1", "rule met"),
]

---

- Test Name: Area under the plasma concentration-time curve in rats following oral administration at 20 mg/kg
- Assay type: ADME, organism-based
- Design: dose 20 mg/kg, route oral
- Condition Notes: rat

# Chemical Smiles, Measure Unit, AUC
rows = [
    ("CCNc1nc(-c2cc(O[C@@H]3C[C@H]4C(=O)N[C@]5(C(=O)O)C[C@H]5/C=C\\CCCCC[C@H](NC(=O)OC5CCCC5)C(=O)N4C3)c3ccc(OC)cc3n2)cs1", "µM·h", 7.2),
]

---

- Test Name: Area under the plasma concentration-time curve in rats after oral administration at 20 mg/kg
- Type: ADME, organism-based
- Design: dose 20 mg/kg, route oral
- Condition Notes: rat
Entries and their AUC values follow.

# Chemical Smiles, AUC
measured = [
    ("COc1ccc2c(O[C@@H]3C[C@H]4C(=O)N[C@]5(C(=O)O)C[C@H]5/C=C\\CCCCC[C@H](NC(=O)OC5CCCC5)C(=O)N4C3)cc(-c3csc(NC(C)C)n3)nc2c1", "12.5 µM·h"),
    ("COc1ccc2c(O[C@@H]3C[C@H]4C(=O)N[C@]5(C(=O)O)C[C@H]5/C=C\\CCCCC[C@H](NC(=O)OC(C)(C)C)C(=O)N4C3)cc(-c3csc(NC(C)=O)n3)nc2c1", "0.3 µM·h"),
]
